Test system: 786-0 renal
Assay Notes: NCI-60 one-dose screen, 48 h (100 = growth as untreated, 0 = no growth, -100 = all killed)
Assay Conditions: 10 µM unless noted
This is part of a sample that, as a whole, favours compounds with a hit. Of some 83,000 tested, about 20% had one in any assay.
Would you please tag the item TRUE when its growth is 50% or above, and FALSE when it is below?

[[record]]
molecule = "Cc1[nH]c(C(=O)Nc2nc3ccc(NC(=O)CCN)cc3s2)c(Cl)c1Cl"
assigned_category = "TRUE"

[[record]]
molecule = "Cc1cc2nc(C(Cl)Cl)nc(-c3ccc(Cl)cc3)n2n1"
assigned_category = "FALSE"

[[record]]
molecule = "COc1cccc(C2C(C#N)=C(N)Oc3cc(OCCCCCC[P+](c4ccccc4)(c4ccccc4)c4ccccc4)ccc32)c1 (centres undefined)"
assigned_category = "FALSE"

[[record]]
molecule = "COC(=O)c1nc(-c2ccc(C)cc2)oc1Sc1ccc(C)cc1"
assigned_category = "TRUE"

[[record]]
molecule = "OCCN1CCN(c2cc(-c3cccc(OC(F)(F)F)c3)nc3ccc(N4CCCC4)cc23)CC1"
assigned_category = "TRUE"

[[record]]
molecule = "CC(=O)OC[C@]12CCC(C)(C)C=C1[C@H]1CC[C@@H]3[C@@]4(C)CCCNC(C)(C)[C@@H]4CC[C@@]3(C)[C@]1(C)CC2"
assigned_category = "TRUE"

[[record]]
molecule = "CN(C)CCN1C(=O)c2c(c3c4ccccc4n4c3c3c2c2ccccc2n3C2CC(O)C(O)C4(C)O2)C1=O (centres undefined)"
assigned_category = "FALSE"

[[record]]
molecule = "Oc1ccccc1C=Nc1ccc(N2CCN(c3ccccc3)CC2)cc1"
assigned_category = "TRUE"

[[record]]
molecule = "Cc1nc2sc(C(=O)Nc3cccc4ncccc34)c(N)c2cc1C(C)O (centres undefined)"
assigned_category = "TRUE"

[[record]]
molecule = "O=C(NCc1ccc(Cn2c(=O)sn(-c3ccc(Cl)cc3)c2=O)cc1)OCc1ccc2c(Cl)cc(Cl)c(O)c2n1"
assigned_category = "TRUE"

[[record]]
molecule = "Cc1nc2cccc(NCCCCC(=O)NO)c2c(=O)n1-c1ccccc1"
assigned_category = "TRUE"

[[record]]
molecule = "O=C(Nc1ccccc1C(=O)N/N=C(\\c1ccccc1)c1ccccn1)c1ccccc1"
assigned_category = "FALSE"

[[record]]
molecule = "Cn1cc(-c2nc3c(F)cc4[nH]ncc4c3c3c2CCCC3)c(C(F)F)n1"
assigned_category = "TRUE"

[[record]]
molecule = "Cc1ccc(S(=O)(=O)OC[C@@]2(C)CC[C@]3(C)CC[C@]4(C)C(=C3C2)C=C[C@@H]2[C@@]3(C)CCCNC(C)(C)[C@@H]3CC[C@]24C)cc1"
assigned_category = "FALSE"

[[record]]
molecule = "COc1cc(-c2nc3occn3c2-c2ccnc(NCCCNS(=O)(=O)c3ccc(O)cc3)n2)ccc1F"
assigned_category = "TRUE"

[[record]]
molecule = "Nc1ccc(-c2ccc(N)c(Br)c2)cc1Br"
assigned_category = "TRUE"

[[record]]
molecule = "CCN(CC)CC(=O)Nc1ccc2ncnc(Nc3ccc(Oc4cccc(F)c4)c(Cl)c3)c2c1"
assigned_category = "TRUE"

[[record]]
molecule = "CCCCCCCCn1ccc2cc(NC(=O)CN3CCN(c4nc(C)cc(N5CCCCC5)n4)CC3)ccc21"
assigned_category = "TRUE"

[[record]]
molecule = "COc1ccc(/C=C/C(=O)c2cc3c(N)c(C(=O)Nc4ccccc4Cl)sc3nc2C)cc1"
assigned_category = "FALSE"


* * *

Tested on: UACC-62 melanoma
Assay Notes: NCI-60 one-dose screen, 48 h
Assay Conditions: 10 µM unless noted
This is part of a sample that, as a whole, favours compounds with a hit. Of some 83,000 tested, about 20% had one in any assay. Active and inactive are the calls of the source. The calls were made as follows: active = growth percent below 10; inactive = the rest.
Possible outcomes: active, inactive

[[record]]
chemical_smiles = "CCN(CC)CCOc1ccccc1C"
assigned_category = "inactive"

[[record]]
chemical_smiles = "COCCn1cc(-c2nc(-c3cn(CCOC)c4ncccc34)cs2)c2ccccc21"
assigned_category = "inactive"

[[record]]
chemical_smiles = "Cc1ccc(-c2nc(SCC(=O)c3ccc(C#N)cc3)[nH]c(=O)c2C#N)cc1"
assigned_category = "inactive"

[[record]]
chemical_smiles = "Cc1ccc(S(=O)(=O)OC[C@@]2(C)CC[C@]3(C)CC[C@]4(C)C(=C3C2)C=C[C@@H]2[C@@]3(C)CCCNC(C)(C)[C@@H]3CC[C@]24C)cc1"
assigned_category = "inactive"

[[record]]
chemical_smiles = "CCCNNC(=O)/C=C/c1ccc(CNCCc2c(C)[nH]c3ccccc23)cc1"
assigned_category = "active"

[[record]]
chemical_smiles = "CSc1nnc(-c2cc3c([nH]c4ccccc43)c(-c3cccc(O)c3)n2)n1-c1ccc(C)cc1"
assigned_category = "inactive"

[[record]]
chemical_smiles = "Clc1nccc2c(-c3csc(-c4c[nH]c5ccc(Br)cc45)n3)c[nH]c12"
assigned_category = "inactive"

[[record]]
chemical_smiles = "O=C1c2cccc3cccc(c23)C(=O)N1N1C(=O)c2cccc3c(N4CCNCC4)ccc(c23)C1=O"
assigned_category = "inactive"

[[record]]
chemical_smiles = "CCc1c2c(nc3ccc(OCc4ccc(B5OC(C)(C)C(C)(C)O5)cc4)cc13)-c1cc3c(c(=O)n1C2)COC(=O)[C@]3(O)CC"
assigned_category = "active"


* * *

System: PC-3 prostate
Assay Notes: NCI-60 one-dose screen, 48 h
Assay Conditions: 10 µM unless noted
Protocol: Growth inhibition of the PC-3 human tumor cell line is measured as a screen for anti-cancer activity. Cells are grown in 96 well plates and exposed to the test compound for 48 hours. Compounds are tested at a single concentration, which is 10^-5 M for most compounds. The reported endpoint is percent growth (GI% or GIPRCNT), where numbers from 0 - 100% represent growth inhibition, and numbers from -100% - 0 represent cell death. For example, a value of 40 represents 60% growth inhibition. […]
About 83,000 compounds went through this panel and 20% of them were active in at least one assay; those are over-represented in the sample as a whole. Activity calls are given as the source filed them. The calls were made as follows: active = growth percent below 10; inactive = the rest.
Possible outcomes: active, inactive

[[record]]
compound = "Cc1nc2cccc(NCCCCC(=O)NO)c2c(=O)n1-c1ccccc1"
tgt = "PC-3 prostate"
assigned_category = "inactive"

[[record]]
compound = "Nc1ccc(-c2ccc(N)c(Br)c2)cc1Br"
tgt = "PC-3 prostate"
assigned_category = "inactive"

[[record]]
compound = "O=C1c2cc3c(cc2-c2c1c1ccc(Cl)cc1c(=O)n2CCCn1ccnc1)OCO3"
tgt = "PC-3 prostate"
assigned_category = "inactive"

[[record]]
compound = "COc1ccc(C/C(C)=C(/c2ccc(OCCN3CCCCCC3)cc2)c2ccc(OC(=O)c3ccccc3)cc2)cc1"
tgt = "PC-3 prostate"
assigned_category = "inactive"

[[record]]
compound = "CCN1C(=S)N(CC)C2C1NC(=S)N2/N=C/C=C/c1ccccc1 (centres undefined)"
tgt = "PC-3 prostate"
assigned_category = "inactive"

[[record]]
compound = "COc1ccc(/C=N/C2=C(C#N)C(c3ccccc3)c3c(ccc4ccccc34)O2)cc1 (centres undefined)"
tgt = "PC-3 prostate"
assigned_category = "inactive"

[[record]]
compound = "COc1ccc(Nc2ncnc3ccc(-c4cncc(NS(C)(=O)=O)c4)cc23)cc1Cl"
tgt = "PC-3 prostate"
assigned_category = "inactive"

[[record]]
compound = "Nn1c(-c2ccc(Cl)cc2)nc2c(-c3ccc(Cl)cc3)nc3ccc(Cl)cc3c2c1=O"
tgt = "PC-3 prostate"
assigned_category = "inactive"

[[record]]
compound = "O=C1CCc2c(sc3[nH]c(=S)n(Cc4ccc(Cl)cc4)c(=O)c23)C1"
tgt = "PC-3 prostate"
assigned_category = "active"

[[record]]
compound = "CC1=C2[C@@H](CC1)[C@]1(C)O[C@@](C3CC3)(C[C@H]1OC(=O)CO)[C@H]2OC(=O)/C=C/c1ccccc1"
tgt = "PC-3 prostate"
assigned_category = "inactive"

[[record]]
compound = "COc1ccc(Cl)cc1Nc1nc(C(F)(F)F)ccc1C(=O)N/N=C/c1ccc(N(C)C)cc1"
tgt = "PC-3 prostate"
assigned_category = "inactive"

[[record]]
compound = "Cc1ccc(-c2nc3nc(-c4ccc(Cl)cc4)nc(N4CCCNCC4)c3o2)cc1"
tgt = "PC-3 prostate"
assigned_category = "active"

[[record]]
compound = "COc1ccc(/C=C/C(=O)c2cc3c(N)c(C(=O)Nc4ccccc4)sc3nc2C)cc1"
tgt = "PC-3 prostate"
assigned_category = "inactive"

[[record]]
compound = "COc1ccc2c(O)c(/C=C3\\N=Nc4nc(C)ccc43)oc2c1CC1CCNCC1"
tgt = "PC-3 prostate"
assigned_category = "inactive"

[[record]]
compound = "Nc1nc(Nc2ccc(F)cc2)nn1C(=O)c1cc(Cl)ccc1Cl"
tgt = "PC-3 prostate"
assigned_category = "inactive"

[[record]]
compound = "C#CCn1cnc2cnc(Nc3cccc(NC(=O)CCl)c3)nc21"
tgt = "PC-3 prostate"
assigned_category = "inactive"

[[record]]
compound = "Cn1c(=O)c2c(nc(Nc3cc(=O)[nH]c(=O)[nH]3)n2Cc2ccccc2)n(C)c1=O"
tgt = "PC-3 prostate"
assigned_category = "inactive"

[[record]]
compound = "COC(=O)c1nc(-c2ccc(C)cc2)oc1S(=O)(=O)c1ccc(Cl)cc1"
tgt = "PC-3 prostate"
assigned_category = "inactive"

[[record]]
compound = "CC[C@]1(O)CC2CN(CCc3c([nH]c4ccccc34)C(C(=O)OC)(c3cc4c(cc3OC)N(C=O)[C@H]3[C@@](O)(C(=O)OC)[C@H](OC(C)=O)[C@]5(CC)[C@@H]6C[C@@H]6CN6CC[C@]43[C@@H]65)C2)C1 (some centres undefined)"
tgt = "PC-3 prostate"
assigned_category = "inactive"


Where do these numbers come from? They come from PubChem BioAssay (NCI).
